The values you see were collected from PubChem BioAssay (NCI).

TGI values by entry
- Test system: HS 578T breast
- TEST: NCI tumour cell line growth inhibition, 48 h

Examples with their reported TGI follow.
MOLECULE | EXPERIMENTAL_SYSTEM | TGI
Nc1ccc2c(SCC(=O)Nc3ccccc3-c3ccccc3NC(=O)CSc3c4ccccc4nc4cc(N)ccc34)c3ccccc3nc2c1 | HS 578T breast | > 90 µM
Brc1ccc2[nH]cc(-c3csc(-c4c[nH]c5ccc(Br)cc45)n3)c2c1 | HS 578T breast | > 20.8 µM
O=C(CCl)Nc1ccc(C(=O)N/N=C/c2ccc(Cl)cc2)cc1 | HS 578T breast | 6.7 µM
CC1=NN(c2cccc(Cl)c2)C2(C1=Cc1ccc(N(C)C)cc1)C(Cl)C(=O)N2c1nc2ccccc2s1 (stereo not drawn) | HS 578T breast | > 100 µM
Cc1cccc2c(N)c3cccc(C(=O)NCC[N+](C)(C)[O-])c3nc12 | HS 578T breast | 38.9 µM
CC(=O)OC1Oc2cc(C)c(C)cc2-c2oc(=O)c(-c3ccccc3)cc21 (stereo not drawn) | HS 578T breast | 1.42 µM
Brc1ccc(/C(N=N/C(=N\Sc2ccccc2)c2ccc(Br)cc2)=N/Sc2ccccc2)cc1 | HS 578T breast | > 100 µM
O=C(NCCCn1ccnc1[N+](=O)[O-])C(=O)NCCCn1ccnc1[N+](=O)[O-] | HS 578T breast | > 100 µM

q: Tell me the measured TGI of `C=CCN(c1cc(OC)c2[nH]c(C(=O)O)c(C)c2c1[N+](=O)[O-])S(C)(=O)=O` , please.
a: > 100 µM

----------
- System: NCI-H226 lung
- TEST: NCI tumour cell line growth inhibition, 48 h
OBSERVATION_TYPE: TGI

COMPOUND | ENDPOINT_RESULT
CC(=O)Nc1ccc2c(c1)CN1C(=O)c3ccccc3C1=N2 | > 100 µM

q: Fill in: TGI of `COc1ccc(C(=C2C(=O)OC(=O)C2=C(C)C)c2ccc(OC)cc2)cc1` is ___
a: > 100 µM

q: Can you look up the measured TGI of COc1ccc(C2NC(=S)NC3=C2COc2ccc(F)cc23)cc1OC (stereo not drawn) for me?
a: 70.4 µM

----------
The following compounds are shown together with reported TGI values.
- Tested on: DU-145 prostate
- TEST: NCI tumour cell line growth inhibition, 48 h

Below, each entry is followed by its recorded TGI result.
COMPOUND | TGI
O=c1[nH]nc(-c2ccc([N+](=O)[O-])cc2)[nH]1 | > 100 µM
Oc1ccc(C[C@@H]2CN[C@H](Cc3ccc(O)c(Br)c3)CN2)cc1 | > 100 µM
O=C(Nc1nc2ccc(F)cc2s1)c1cccnc1Nc1ccc(Cl)cc1Cl | 13.4 µM

q: # lookup: TGI of `CCOC(=O)/N=c1\ssc(Cl)c1Cl`
a: 19.4 µM

q: Can you share its TGI? I mean this compound: `Cc1ccc(-c2cc(C(Cl)Cl)on2)cc1`
a: > 100 µM

q: May I ask what TGI has been recorded for CC1=NN(c2cccc(Cl)c2)C2(C1=Cc1ccc(N(C)C)cc1)C(Cl)C(=O)N2c1nc2ccccc2s1 (stereo not drawn) ?
a: > 100 µM

----------
- System: K-562 leukemia
- TEST: NCI tumour cell line growth inhibition, 48 h; in the data active = GI50 below about 0.43 µM; inactive = the rest
Could you please pick one outcome from this set? active, inactive

COMPOUND | EXPERIMENTAL_SYSTEM | CLASS_NAME
NCCNc1nc2ccccc2c2c(=O)c3cc(F)cc(Cl)c3sc12 | K-562 leukemia | active
Fc1ccc(-c2cc(-c3cn[nH]c3-c3ccccn3)ccn2)cc1 | K-562 leukemia | inactive
O=c1c2ccccc2c(=O)c2c1sc1c(=O)c3ccc(O)cc3c(=O)c12 | K-562 leukemia | inactive
Cc1ccc(NCCNCC(O)CO)c2c(=O)c3ccccc3sc12 (stereo not drawn) | K-562 leukemia | inactive
N#CC1=C(N)NC(=S)C(C#N)C12Nc1ccccc1S2 (stereo not drawn) | K-562 leukemia | inactive

q: For `COc1ccc(-c2nn3ncccc3c2-c2ccnc(Nc3cccc(C(F)(F)F)c3)n2)cc1` , which call appears in the assay record?
a: inactive

q: Query: recorded result category for COc1ccc(C2NC(=S)NC3=C2COc2ccc(F)cc23)cc1OC (stereo not drawn) in this test
a: inactive

q: Query: recorded result category for COC12C=C/C(=C(/C(=O)OCc3csc(SC)n3)C(=O)CCCCCCCCC3(OC)C=C/C(=C(/C(=O)OCc4cnc(SC)s4)C(=O)CCCCCCCC1)O3)O2 (stereo not drawn) in this test
a: inactive

----------
// reported TGI for each item listed
- Test system: TK-10 renal
- TEST: NCI tumour cell line growth inhibition, 48 h

Please review the following examples before continuing.
COMPOUND | ENDPOINT_RESULT
C#CCn1cc(C=C2C(=O)NC(=S)NC2=O)c2cc(Cl)ccc21 | 5.95 µM
CCCCCc1cc(CCCC)sc1-c1ccco1 | > 100 µM
COC(=O)C1=C(C(=O)OC)N(C(C)C)[C@H]2C(C(=O)OC)=C(C(=O)OC)N(C(C)C)[C@@H]12 | > 100 µM

Could you now look at the following compound, please?
q: Param item = Cc1ccc2c(C(C[N+](=O)[O-])c3ccco3)c(-c3ccccc3)[nH]c2c1 (centres undefined) ; retrieve measured TGI.
a: > 100 µM

----------
// reported TGI for each item listed
- System: SF-295 CNS
- TEST: NCI tumour cell line growth inhibition, 48 h
Number only, in µM; omit the unit.

Here's what some known entries look like.
COMPOUND | EXPERIMENTAL_SYSTEM | TGI, µM
CCCCCCCCCCCCNC(=O)[C@H]1CSC(c2ccsc2)N1 (stereo partly drawn) | SF-295 CNS | 1.68
Cc1nc2cc(Nc3nc(Nc4ccc(F)cc4)nc(-c4ccc(Cl)cc4)n3)ccc2n1Cc1ccccc1 | SF-295 CNS | 58
Cc1cc2c(-c3nc4ccccn4c3NC34CC5CC(CC(C5)C3)C4)c(O)c(O)cc2c(O)c1-c1c(C)cc2c(-c3nc4ccccn4c3NC34CC5CC(CC(C5)C3)C4)c(O)c(O)cc2c1O | SF-295 CNS | 2.78

Please turn your attention to the following entry.
q: Could you tell me which TGI is on file for `COc1cc(/C=C2\C(=O)Nc3ccc(Br)cc32)cc(OC)c1OC` ?
a: 68.9

----------
- Tested on: SNB-78 CNS
- TEST: NCI tumour cell line growth inhibition, 48 h
Attribute: TGI

Completed entries (count: 4):
COMPOUND | TGI
O=C(O)C(CS)N=Cc1nc(-c2ccccc2)oc1O (stereo not drawn) | > 100 µM
CC12O[Te]34OC1(C)C(C)(O3)C2(C)O4 | 65.9 µM
OCCN(CCO)c1ncnc2c1sc(=S)n2-c1ccccc1 | > 100 µM
CCCC/C=C1\CCC(CN2CCCC2)C1=O (stereo not drawn) | 57.2 µM

q: Look up TGI for this compound: `O=C1c2c(O)ccc(O)c2C(=O)c2c(NCCNCCO)ccc(NCCNCCO)c21`
a: 1.66 µM

q: Value lookup for TGI; key = `O=C1Cc2ccccc2CCc2ccccc21`
a: > 100 µM

q: Look up TGI: `CCOC(=O)c1cc(C(=O)O)c(=O)n2c1[nH]c1ccccc12`
a: > 100 µM

q: Recorded TGI of CN1C(=O)CC2(C)c3cc(C=O)ccc3N(C)C12 (stereo not drawn) , please.
a: > 100 µM

----------
- System: MOLT-4 leukemia
- TEST: NCI tumour cell line growth inhibition, 48 h
OBSERVATION_TYPE: TGI (µM)
Kindly answer with a numeric value in µM, unit omitted.

q: // fetch MOLT-4 leukemia TGI for `CC(C)c1ccc2c(c1)c(SC(C)(C)C)c(CC(C)(C)C(=O)O)n2Cc1ccc(Cl)cc1`
a: 26.3

q: Entry `Brc1ccc2[nH]cc(-c3csc(-c4c[nH]c5ccc(Br)cc45)n3)c2c1` , system MOLT-4 leukemia: what TGI was measured?
a: 3.45

q: Recall the recorded TGI for `O=c1c2ccccc2c(=O)c2c1sc1c(=O)c3ccc(O)cc3c(=O)c12` with MOLT-4 leukemia and state it.
a: 8.07

q: What measured TGI is associated with `C/C(=C\CO)CC[C@@H]1[C@@]2(C)CCCC(C)(C)[C@@H]2CC[C@@]1(C)O` on MOLT-4 leukemia?
a: 69.2

----------
- Test system: NCI-H226 lung
- TEST: NCI tumour cell line growth inhibition, 48 h
OBSERVATION_TYPE: GI50

COMPOUND | GI50
Cc1ccc(NCCNCC(O)CO)c2c(=O)c3ccccc3sc12 (stereo unspecified) | 1.65 µM
CCn1c(-c2nonc2N)nc2c(C#CC(C)(C)O)ncc(OC[C@@H]3CCCN3)c21 | 8.27 µM

q: Please give the measured GI50 for this compound: COC12C=C/C(=C(/C(=O)OCc3csc(SC)n3)C(=O)CCCCCCCCC3(OC)C=C/C(=C(/C(=O)OCc4cnc(SC)s4)C(=O)CCCCCCCC1)O3)O2 (stereo unspecified)
a: 3.48 µM

q: Param item = Cc1ccc(S(=O)c2ccc([N+](=O)[O-])c3nonc23)cc1 (stereo unspecified) ; retrieve measured GI50.
a: 15.7 µM

q: Reported GI50 for `CCOC(=O)/N=c1\ssc(Cl)c1Cl` : what is it?
a: 27.8 µM

q: # get_value(readout='GI50', item= `C#CCn1cc(C=C2C(=O)NC(=S)NC2=O)c2cc(Cl)ccc21` )
a: 2.82 µM

q: I have this compound here, `CCOC(=O)C(=Cc1c(-c2ccccc2)[nH]c2ccccc12)C(=O)OCC` , and I need its recorded GI50.
a: 11.3 µM

q: Which GI50 value belongs to `Cc1ccc(-c2cc(C(Cl)Cl)on2)cc1` ?
a: 48.2 µM

q: I am curious: what GI50 value has been reported for `COc1ccc(-c2nc(/C=N/Nc3cc(C)nc4ccc(Br)cc34)c(C)o2)cc1` ?
a: 2.09 µM

q: GI50 lookup needed for `CC[C@H](C)[C@H](NC(=O)N[C@@H](C)c1ccccc1)C(=O)N(C)[C@H](C[C@@H](OC(C)=O)c1nc(C(=O)N[C@@H](Cc2ccccc2)C[C@H](C)C(=O)OC)cs1)C(C)C` , thanks.
a: 44.1 µM

q: Field request: GI50 | item: `Cc1cc(Nc2cc(N3CCN(C)CC3)nc(C#Cc3ccccc3)n2)n[nH]1`
a: 2.17 µM
